System: 889142-216-R-J1-PDC complex spheroid viability
ASSAY_METHOD_TEXT: Anticancer human tumor 889142-216-R-J1-PDC patient-derived bladder carcinoma cell line growth inhibition [POLQ]
CONDITION_PARAMETERS: second compound 0.0316 µM; first compound 0.1 µM; hits give low values
Experimental: Multicellular complex tumor spheroid response to Polymerase (POL) inhibitors (novobiocin, ART-558, RP6685) in combination with a variety of drugs and investigational agents in selected tumor cell lines The POL inhibitors (novobiocin, ART-558, and RP6685) were evaluated both individually and in combination with standard of care and investigational anticancer small molecules within a complex spheroid model of solid tumors. . […]
Please go through the items and note down their viability, T/C.
Quick note: give the figure in %, leave out the unit.

# molecule COc1cccc(OCCCN)c1-c1cc(Nc2cnc(C#N)cn2)n[nH]1 + Cc1cccc(N(C)C(=O)C2C(O)CCN2c2nc(C)cc(C(F)(F)F)c2C#N)c1 ; its viability, T/C = 52.1

# molecule CNCc1ccc(-c2[nH]c3cc(F)cc4c3c2CCNC4=O)cc1 + Cc1cccc(N(C)C(=O)C2C(O)CCN2c2nc(C)cc(C(F)(F)F)c2C#N)c1 ; its viability, T/C = 106

# molecule CCCS(=O)(=O)Nc1ccc(F)c(C(=O)c2c[nH]c3ncc(-c4ccc(Cl)cc4)cc23)c1F + Cc1cccc(N(C)C(=O)C2C(O)CCN2c2nc(C)cc(C(F)(F)F)c2C#N)c1 ; its viability, T/C = 116

# molecule CCc1c2c(nc3ccc(O)cc13)-c1cc3c(c(=O)n1C2)COC(=O)[C@]3(O)CC + Nc1ccc(C#CCN(C(=O)Cc2ncc(C(F)(F)F)cc2C(F)(F)F)c2ccc(F)cc2)nn1 ; its viability, T/C = 32.9

# molecule CC1COCCN1c1cc(C2(S(C)(=N)=O)CC2)nc(-c2ccnc3[nH]ccc23)n1 (stereo not given) + COC1C(OC(N)=O)C(O)C(Oc2ccc3c(O)c(NC(=O)c4ccc(O)c(CC=C(C)C)c4)c(=O)oc3c2C)OC1(C)C ; its viability, T/C = 93.9

====

System: 889142-216-R-J1-PDC complex spheroid viability
ASSAY_METHOD_TEXT: Anticancer human tumor 889142-216-R-J1-PDC cell line growth inhibition [POLQ];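 also: spheroids exposed to compounds for seven days; 100% = DMSO vehicle control viability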
CONDITION_PARAMETERS: second compound 0.316 µM; first compound 0.316 µM; hits give low values
Label label 1 when viability, T/C < 90%; otherwise label 0.

Confirm or reject: viability, T/C of O=c1[nH]cc(F)c(=O)[nH]1 + COC1C(OC(N)=O)C(O)C(Oc2ccc3c(O)c(NC(=O)c4ccc(O)c(CC=C(C)C)c4)c(=O)oc3c2C)OC1(C)C lies strictly below 90%
label 0

Confirm or reject: viability, T/C of CCc1cc2c(N3CCc4c(cc(Cn5ccnc5)cc4-c4cn(C)nc4C(F)(F)F)C3=O)ccnc2c(OC)n1 + COC1C(OC(N)=O)C(O)C(Oc2ccc3c(O)c(NC(=O)c4ccc(O)c(CC=C(C)C)c4)c(=O)oc3c2C)OC1(C)C lies strictly below 90%
label 0

Confirm or reject: viability, T/C of C=CCn1c(=O)c2cnc(Nc3ccc(N4CCN(C)CC4)cc3)nc2n1-c1cccc(C(C)(C)O)n1 + COC1C(OC(N)=O)C(O)C(Oc2ccc3c(O)c(NC(=O)c4ccc(O)c(CC=C(C)C)c4)c(=O)oc3c2C)OC1(C)C lies strictly below 90%
label 1

Confirm or reject: viability, T/C of CCCS(=O)(=O)Nc1ccc(F)c(C(=O)c2c[nH]c3ncc(-c4ccc(Cl)cc4)cc23)c1F + COC1C(OC(N)=O)C(O)C(Oc2ccc3c(O)c(NC(=O)c4ccc(O)c(CC=C(C)C)c4)c(=O)oc3c2C)OC1(C)C lies strictly below 90%
label 0

Confirm or reject: viability, T/C of CC1COCCN1c1cc(C2(S(C)(=N)=O)CC2)nc(-c2ccnc3[nH]ccc23)n1 (stereo not given) + Cc1cccc(N(C)C(=O)C2C(O)CCN2c2nc(C)cc(C(F)(F)F)c2C#N)c1 lies strictly below 90%
label 1

====

Please go through the items and note down their viability, T/C.
Tested on: 889142-216-R-J1-PDC complex spheroid viability
ASSAY_METHOD_TEXT: Anticancer human tumor 889142-216-R-J1-PDC cell line growth inhibition [POLQ];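 also: spheroids exposed to compounds for seven days; 100% = DMSO vehicle control viability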
CONDITION_PARAMETERS: second compound 0.1 µM; first compound 0.316 µM; hits give low values
Quick note: give the figure in %, leave out the unit.

# molecule CC1COCCN1c1cc(-c2ccnn2C)c2ccnc(-c3ccn[nH]3)c2n1 (stereo not given) + COC1C(OC(N)=O)C(O)C(Oc2ccc3c(O)c(NC(=O)c4ccc(O)c(CC=C(C)C)c4)c(=O)oc3c2C)OC1(C)C ; its viability, T/C = 40.4

# molecule C=CCn1c(=O)c2cnc(Nc3ccc(N4CCN(C)CC4)cc3)nc2n1-c1cccc(C(C)(C)O)n1 + Nc1ccc(C#CCN(C(=O)Cc2ncc(C(F)(F)F)cc2C(F)(F)F)c2ccc(F)cc2)nn1 ; its viability, T/C = 64.5

# molecule COc1cccc(OCCCN)c1-c1cc(Nc2cnc(C#N)cn2)n[nH]1 + Cc1cccc(N(C)C(=O)C2C(O)CCN2c2nc(C)cc(C(F)(F)F)c2C#N)c1 ; its viability, T/C = 49.4

# molecule CC(C)n1c(=O)n(C)c2cnc3cc(F)c(-c4ccc(OCCCN5CCCCC5)nc4)cc3c21 + COC1C(OC(N)=O)C(O)C(Oc2ccc3c(O)c(NC(=O)c4ccc(O)c(CC=C(C)C)c4)c(=O)oc3c2C)OC1(C)C ; its viability, T/C = 81.7

# molecule CCc1cc2c(N3CCc4c(cc(Cn5ccnc5)cc4-c4cn(C)nc4C(F)(F)F)C3=O)ccnc2c(OC)n1 + COC1C(OC(N)=O)C(O)C(Oc2ccc3c(O)c(NC(=O)c4ccc(O)c(CC=C(C)C)c4)c(=O)oc3c2C)OC1(C)C ; its viability, T/C = 98.3

====

Please go through the items and note down their viability, T/C.
System: 889142-216-R-J1-PDC complex spheroid viability
ASSAY_METHOD_TEXT: Anticancer human tumor 889142-216-R-J1-PDC cell line growth inhibition [POLQ];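 also: spheroids exposed to compounds for seven days; 100% = DMSO vehicle control viability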
CONDITION_PARAMETERS: second compound 0.1 µM; first compound 0.316 µM; hits give low values

# compound CCc1cc2c(N3CCc4c(cc(Cn5ccnc5)cc4-c4cn(C)nc4C(F)(F)F)C3=O)ccnc2c(OC)n1 + Nc1ccc(C#CCN(C(=O)Cc2ncc(C(F)(F)F)cc2C(F)(F)F)c2ccc(F)cc2)nn1 ; its viability, T/C = 104%

# compound O=c1[nH]cc(F)c(=O)[nH]1 + COC1C(OC(N)=O)C(O)C(Oc2ccc3c(O)c(NC(=O)c4ccc(O)c(CC=C(C)C)c4)c(=O)oc3c2C)OC1(C)C ; its viability, T/C = 75.3%

# compound CCCS(=O)(=O)Nc1ccc(F)c(C(=O)c2c[nH]c3ncc(-c4ccc(Cl)cc4)cc23)c1F + COC1C(OC(N)=O)C(O)C(Oc2ccc3c(O)c(NC(=O)c4ccc(O)c(CC=C(C)C)c4)c(=O)oc3c2C)OC1(C)C ; its viability, T/C = 98.5%

# compound CCc1cc2c(N3CCc4c(cc(Cn5ccnc5)cc4-c4cn(C)nc4C(F)(F)F)C3=O)cc(C)nc2c(OC)n1 + Cc1cccc(N(C)C(=O)C2C(O)CCN2c2nc(C)cc(C(F)(F)F)c2C#N)c1 ; its viability, T/C = 105%

# compound CNCc1ccc(-c2[nH]c3cc(F)cc4c3c2CCNC4=O)cc1 + Nc1ccc(C#CCN(C(=O)Cc2ncc(C(F)(F)F)cc2C(F)(F)F)c2ccc(F)cc2)nn1 ; its viability, T/C = 104%

====

Test system: 889142-216-R-J1-PDC complex spheroid viability
ASSAY_METHOD_TEXT: Anticancer human tumor 889142-216-R-J1-PDC cell line growth inhibition [POLQ];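 also: spheroids exposed to compounds for seven days; 100% = DMSO vehicle control viability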
CONDITION_PARAMETERS: second compound 0.0316 µM; first compound 0.1 µM; hits give low values
Please go through the items and note down their viability, T/C.
Quick note: give the figure in %, leave out the unit.

# compound C=CC(=O)N1CCN(c2nc(=O)n(-c3c(C)ccnc3C(C)C)c3nc(-c4c(O)cccc4F)c(F)cc23)C(C)C1 (stereo not drawn) + Cc1cccc(N(C)C(=O)C2C(O)CCN2c2nc(C)cc(C(F)(F)F)c2C#N)c1 ; its viability, T/C = 93.5

# compound O=C(c1cc(Cc2n[nH]c(=O)c3ccccc23)ccc1F)N1CCN(C(=O)C2CC2)CC1 + Nc1ccc(C#CCN(C(=O)Cc2ncc(C(F)(F)F)cc2C(F)(F)F)c2ccc(F)cc2)nn1 ; its viability, T/C = 93

# compound Nc1ccn(C2OC(CO)C(O)C2(F)F)c(=O)n1 (stereo not drawn) + Nc1ccc(C#CCN(C(=O)Cc2ncc(C(F)(F)F)cc2C(F)(F)F)c2ccc(F)cc2)nn1 ; its viability, T/C = 56.1

Provenance of the data: PubChem BioAssay AID1963831
